- target: K18 Tau (Homo sapiens)
- Construct: K18 Tau was first expressed, collected, and purified; His tag (cleaved yes); made in house
- Sequence (P10636 561-685 limits assumed): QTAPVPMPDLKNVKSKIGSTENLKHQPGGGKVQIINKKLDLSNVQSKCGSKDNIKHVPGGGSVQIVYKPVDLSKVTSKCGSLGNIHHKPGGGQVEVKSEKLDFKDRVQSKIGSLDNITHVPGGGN
- assayRemarks: Tau Kinetics Thioflavin T plate reader assay
- Assay type: biochemical
- details: 10 μM PLP/Pep; average of the amplitudes at 10, 15 and 20 hr
Below, each entry is listed with its recorded Avg P Amplitude.
attributeMeasured: Avg P Amplitude

- substance: "TP12: PLP generated from peptide monomers characterized by SEQ ID: 10 (VQPINK)"
  recordedNumber: 36
- substance: "VQPINK [P12]"
  recordedNumber: 474
- substance: "VQIINKRR [P4]"
  recordedNumber: 436
- substance: "DRVQIVYKRR [P7]"
  recordedNumber: 427
